Below, each entry is listed alongside its reported pest or weed control at 70 g/ha.
test system: Direct Seeded Rice and weed species; assay: Postemergence herbicidal activity in direct seeded rice, visual rating after 20-22 days and probit GR20/GR50/GR80/GR90 (Table 14); assay type: in vivo; conditions: post-emergence, 504 h; LEFCH (Chinese sprangletop, Leptochloa chinensis); 70 g ai/ha; postemergence; read-out: Visual Growth Reduction (%) 21 Days After Application LEFCH

// worked examples, pest or weed control at 70 g/ha included
COc1c(N)nc(-c2ccc3c(c2F)OC(F)(F)O3)nc1C(=O)O | 30 to 44%
COc1c(C(=O)O)nc(-c2ccc3c(c2)OC(F)(F)O3)c(F)c1N | 0 to 29%
Nc1c(F)c(-c2cc3c(cc2F)OC(F)(F)O3)nc(C(=O)O)c1Cl | 95 to 100%
Nc1cc(-c2ccc3c(c2F)OC(F)(F)O3)nc(C(=O)O)c1Cl | 95 to 100%

Give the reported value of pest or weed control at 70 g/ha for this record: COC(=O)c1nc(-c2ccc3c(c2F)OC(F)(F)O3)c(F)c(N)c1Cl 95 to 100%
